# Lookup of reported Population Pyknosed Nuclei (%) keyed by entry
- System: Fibroblast
- Assay Method Text: Multiplex assay against human fibroblast
- Format: toxicity, cell-based
- Run Parameters: 24 h, 10 µM, compound concentration 10 uM, replicate 1
Outcome Measure: Population Pyknosed Nuclei (%)

Compound | Outcome Measure | Unit Symbol | Result Value
N#Cc1c(N)nc(SCc2csc(-c3ccc(Cl)cc3)n2)c(C#N)c1-c1ccc(OCCO)cc1 | Population Pyknosed Nuclei (%) | % | 20
c1cc(OCCCN2CCCCC2)ccc1CN1CCCCC1 | Population Pyknosed Nuclei (%) | % | 10
CSc1ccccc1N1CCN(CCCCCC(=O)NC2CCCc3ccccc32)CC1.Cl (centres undefined) | Population Pyknosed Nuclei (%) | % | 11
CC(C)(C)c1ccc(S(=O)(=O)Nc2ccc(Cl)cc2C(=O)c2cc[n+]([O-])cc2)cc1 | Population Pyknosed Nuclei (%) | % | 16
CCCC(CCC)C(=O)O | Population Pyknosed Nuclei (%) | % | 5
CNC[C@H](O)c1ccc(O)c(O)c1 [EPINEPHRINE] | Population Pyknosed Nuclei (%) | % | 23
C[C@@H]1C[C@H]2[C@@H]3CCC4=CC(=O)C=C[C@]4(C)[C@@]3(F)[C@@H](O)C[C@]2(C)[C@@]1(O)C(=O)CO | Population Pyknosed Nuclei (%) | % | 18
O=C(O)c1cc2ccccc2c(Cc2c(O)c(C(=O)O)cc3ccccc23)c1O | Population Pyknosed Nuclei (%) | % | 13
O=C(O)Cc1ccccc1Nc1c(Cl)cccc1Cl | Population Pyknosed Nuclei (%) | % | 15
